# target: UniProt O13428
# assay: Inhibition of 1,3-beta-D-glucan synthase (GS) from candida albicans
measure name: IC50 (nM)

smiles input	unit	result number
CCCCCCCCCCCCC[C@@H]1CC(=O)N[C@@H]([C@@H](C)O)C(=O)N[C@H](C)C(=O)N[C@@H](Cc2ccc(O)cc2)C(=O)N[C@@H](C(C)C)C(=O)N2C[C@H](O)C[C@H]2C(=O)N[C@@H]([C@@H](C)O)C(=O)N[C@@H]([C@@H](C)O)C(=O)N2CC[C@H](O)[C@H]2C(=O)N[C@@H]([C@H](O)CC(N)=O)C(=O)NCC(=O)N[C@@H]([C@@H](C)O)C(=O)N[C@@H](CCCN)C(=O)O1	nM	12

====

# target: Beta-1,3-glucan synthase (Candida albicans, UniProt O13428)
# Sequence (O13428 whole entry): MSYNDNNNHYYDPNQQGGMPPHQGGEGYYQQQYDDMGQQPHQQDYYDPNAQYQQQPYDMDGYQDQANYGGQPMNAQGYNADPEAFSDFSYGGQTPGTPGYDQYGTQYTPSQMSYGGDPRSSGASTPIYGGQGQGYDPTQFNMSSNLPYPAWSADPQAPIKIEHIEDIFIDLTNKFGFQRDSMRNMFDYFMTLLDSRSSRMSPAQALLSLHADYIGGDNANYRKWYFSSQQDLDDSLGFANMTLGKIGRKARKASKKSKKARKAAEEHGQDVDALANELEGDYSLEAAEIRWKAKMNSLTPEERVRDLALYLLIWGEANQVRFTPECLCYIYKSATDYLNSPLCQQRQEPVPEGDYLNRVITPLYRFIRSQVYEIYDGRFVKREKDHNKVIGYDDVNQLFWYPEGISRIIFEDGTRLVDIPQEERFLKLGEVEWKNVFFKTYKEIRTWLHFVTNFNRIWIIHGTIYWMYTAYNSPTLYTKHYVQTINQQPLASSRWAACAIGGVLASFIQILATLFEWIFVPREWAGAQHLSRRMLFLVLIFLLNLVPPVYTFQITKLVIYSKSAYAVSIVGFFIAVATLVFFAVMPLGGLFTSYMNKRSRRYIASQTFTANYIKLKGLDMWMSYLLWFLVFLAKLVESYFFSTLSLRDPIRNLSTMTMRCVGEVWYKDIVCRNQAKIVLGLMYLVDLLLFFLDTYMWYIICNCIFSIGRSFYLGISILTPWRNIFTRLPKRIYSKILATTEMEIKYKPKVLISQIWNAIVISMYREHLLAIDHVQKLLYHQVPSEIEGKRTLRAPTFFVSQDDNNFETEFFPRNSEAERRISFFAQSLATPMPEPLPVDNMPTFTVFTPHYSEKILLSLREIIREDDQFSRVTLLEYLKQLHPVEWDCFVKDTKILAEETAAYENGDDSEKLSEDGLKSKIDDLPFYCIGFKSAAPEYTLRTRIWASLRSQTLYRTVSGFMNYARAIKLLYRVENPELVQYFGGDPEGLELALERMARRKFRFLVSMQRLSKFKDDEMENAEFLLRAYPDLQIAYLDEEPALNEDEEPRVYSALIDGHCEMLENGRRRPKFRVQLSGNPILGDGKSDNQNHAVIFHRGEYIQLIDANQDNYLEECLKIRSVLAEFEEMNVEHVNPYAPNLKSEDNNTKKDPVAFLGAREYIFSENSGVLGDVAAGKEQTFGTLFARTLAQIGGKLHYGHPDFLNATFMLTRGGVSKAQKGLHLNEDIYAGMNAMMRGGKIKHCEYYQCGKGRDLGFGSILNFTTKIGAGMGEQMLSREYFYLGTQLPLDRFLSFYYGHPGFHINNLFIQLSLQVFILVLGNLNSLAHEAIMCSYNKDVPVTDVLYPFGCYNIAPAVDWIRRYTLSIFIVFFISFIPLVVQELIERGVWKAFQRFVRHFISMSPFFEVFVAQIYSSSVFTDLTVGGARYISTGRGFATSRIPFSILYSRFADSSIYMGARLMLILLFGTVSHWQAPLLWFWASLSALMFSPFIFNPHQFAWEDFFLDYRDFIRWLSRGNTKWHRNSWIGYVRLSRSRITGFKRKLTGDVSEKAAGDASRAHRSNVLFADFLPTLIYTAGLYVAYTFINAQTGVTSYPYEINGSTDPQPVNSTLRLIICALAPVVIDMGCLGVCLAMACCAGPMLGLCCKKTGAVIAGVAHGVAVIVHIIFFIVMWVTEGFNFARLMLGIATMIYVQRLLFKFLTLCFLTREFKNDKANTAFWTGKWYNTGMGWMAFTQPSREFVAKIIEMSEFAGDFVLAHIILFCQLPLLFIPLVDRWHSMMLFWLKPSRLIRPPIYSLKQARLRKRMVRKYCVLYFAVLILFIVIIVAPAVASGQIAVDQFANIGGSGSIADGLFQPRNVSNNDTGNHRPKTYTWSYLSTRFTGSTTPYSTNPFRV
pIC50: −log10 of the molar value.
Overview of reported pIC50 across a group of molecules:
measure name: pIC50

molecule	measure name	prefix operator	result number
CCCCCCCCCCCCC[C@@H]1CC(=O)N[C@@H]([C@@H](C)O)C(=O)N[C@H](C)C(=O)N[C@@H](Cc2ccc(O)cc2)C(=O)N[C@@H](C(C)C)C(=O)N2C[C@H](O)C[C@H]2C(=O)N[C@@H]([C@@H](C)O)C(=O)N[C@@H]([C@@H](C)O)C(=O)N2CC[C@H](O)[C@H]2C(=O)N[C@@H]([C@H](O)CC(N)=O)C(=O)NCC(=O)N[C@H]([C@@H](C)O)C(=O)N[C@@H](CCCN(CCN)CCN)C(=O)O1	pIC50	=	8.70
CCCCCCCCCCCCC[C@@H]1CC(=O)N[C@@H]([C@@H](C)O)C(=O)N[C@H](C)C(=O)N[C@@H](Cc2ccc(OC)cc2)C(=O)N[C@@H](C(C)C)C(=O)N2C[C@H](O)C[C@H]2C(=O)N[C@@H]([C@@H](C)O)C(=O)N[C@@H]([C@@H](C)O)C(=O)N2CC[C@H](O)[C@H]2C(=O)N[C@@H]([C@H](O)CC(N)=O)C(=O)NCC(=O)N[C@@H]([C@@H](C)O)C(=O)N[C@@H](CCCN)C(=O)O1	pIC50	=	7.62
CCCCCCCCCCCCC[C@@H]1CC(=O)N[C@@H]([C@@H](C)O)C(=O)N[C@H](C)C(=O)N[C@@H](Cc2ccc(O)cc2)C(=O)N[C@@H](C(C)C)C(=O)N2C[C@H](O)C[C@H]2C(=O)N[C@@H]([C@@H](C)O)C(=O)N[C@@H]([C@@H](C)O)C(=O)N2CC[C@H](O)[C@H]2C(=O)N[C@@H]([C@H](O)CC(N)=O)C(=O)NCC(=O)N[C@@H]([C@@H](C)O)C(=O)N[C@@H](CCCN(C)C)C(=O)O1	pIC50	=	7.35
CCCCCCCCCCCCC[C@@H]1CC(=O)N[C@@H]([C@H](C)O)C(=O)N[C@H](C)C(=O)N[C@@H](Cc2ccc(OCc3ccccc3)cc2)C(=O)N[C@@H](C(C)C)C(=O)N2C[C@H](O)C[C@H]2C(=O)N[C@H]([C@@H](C)O)C(=O)N[C@@H]([C@@H](C)O)C(=O)N2CC[C@H](O)[C@H]2C(=O)N[C@@H]([C@H](O)CC(N)=O)C(=O)NCC(=O)N[C@@H]([C@@H](C)O)C(=O)N[C@@H](CCCN)C(=O)O1	pIC50	<	6.89
CCCCCCCCCCCCC[C@@H]1CC(=O)N[C@@H]([C@@H](C)O)C(=O)N[C@H](C)C(=O)N[C@@H](Cc2ccc(O)cc2)C(=O)N[C@@H](C(C)C)C(=O)N2C[C@H](O)C[C@H]2C(=O)N[C@@H]([C@@H](C)O)C(=O)N[C@@H]([C@@H](C)O)C(=O)N2CC[C@H](O)[C@H]2C(=O)N[C@@H]([C@H](O)CC(N)=O)C(=O)NCC(=O)N[C@@H]([C@@H](C)O)C(=O)N[C@@H](CCCO)C(=O)O1	pIC50	<	6.28
CCCCCCCCCCCCC[C@@H]1CC(=O)N[C@@H]([C@@H](C)O)C(=O)N[C@H](C)C(=O)N[C@@H](Cc2ccc(O)cc2)C(=O)N[C@@H](C(C)C)C(=O)N2C[C@H](O)C[C@H]2C(=O)N[C@@H]([C@@H](C)O)C(=O)N[C@@H]([C@@H](C)O)C(=O)N2CC[C@H](O)[C@H]2C(=O)N[C@@H]([C@H](O)CC(N)=O)C(=O)NCC(=O)N[C@@H]([C@@H](C)O)C(=O)N[C@H](CCCNC(=O)C(N)CCCN)C(=O)O1 (stereo partly specified)	pIC50	=	8.30
CCCCCCCCCCCCC[C@@H]1CC(=O)N[C@@H]([C@@H](C)O)C(=O)N[C@H](C)C(=O)N[C@@H](Cc2ccc(O)cc2)C(=O)N[C@@H](C(C)C)C(=O)N2C[C@H](O)C[C@H]2C(=O)N[C@@H]([C@@H](C)O)C(=O)N[C@@H]([C@@H](C)O)C(=O)N2CC[C@H](O)[C@H]2C(=O)N[C@@H]([C@H](O)CC(N)=O)C(=O)NCC(=O)N[C@@H]([C@@H](C)O)C(=O)N[C@@H](CCCNC(=O)C(N)CCCN)C(=O)O1 (stereo partly specified)	pIC50	=	8.10
CCCCCCCCCCCCC[C@@H]1CC(=O)N[C@@H]([C@@H](C)O)C(=O)N[C@H](C)C(=O)N[C@@H](Cc2ccc(O)cc2)C(=O)N[C@@H](C(C)C)C(=O)N2C[C@H](O)C[C@H]2C(=O)N[C@@H]([C@@H](C)O)C(=O)N[C@@H]([C@@H](C)O)C(=O)N2CC[C@H](O)[C@H]2C(=O)N[C@@H]([C@H](O)CCN)C(=O)NCC(=O)N[C@@H]([C@@H](C)O)C(=O)N[C@@H](CCN)C(=O)O1	pIC50	=	8.22
CCCCCCCCCCCCC[C@@H]1CC(=O)N[C@@H]([C@H](C)O)C(=O)N[C@H](C)C(=O)N[C@@H](Cc2ccc(O)cc2)C(=O)N[C@@H](C(C)C)C(=O)N2C[C@H](O)C[C@H]2C(=O)N[C@@H]([C@@H](C)O)C(=O)N[C@@H]([C@@H](C)O)C(=O)N2CC[C@H](O)[C@H]2C(=O)N[C@@H]([C@H](O)CC(N)=O)C(=O)NCC(=O)N[C@@H]([C@@H](C)O)C(=O)N[C@@H](CCCNC(C)=O)C(=O)O1	pIC50	=	6.64
CCCCCCCCCCCCC[C@@H]1CC(=O)N[C@@H]([C@@H](C)O)C(=O)N[C@H](C)C(=O)N[C@@H](Cc2ccc(O)cc2)C(=O)N[C@@H](C(C)C)C(=O)N2C[C@H](O)C[C@H]2C(=O)N[C@@H]([C@@H](C)O)C(=O)N[C@@H]([C@@H](C)O)C(=O)N2CC[C@H](O)[C@H]2C(=O)N[C@@H]([C@H](O)CC#N)C(=O)NCC(=O)N[C@@H]([C@@H](C)O)C(=O)N[C@@H](CCN)C(=O)O1	pIC50	=	7.72
CCCCCCCCCCCCC[C@@H]1CC(=O)N[C@@H]([C@@H](C)O)C(=O)N[C@H](C)C(=O)N[C@@H](Cc2ccc(O)cc2)C(=O)N[C@@H](C(C)C)C(=O)N2C[C@H](O)C[C@H]2C(=O)N[C@@H]([C@@H](C)O)C(=O)N[C@@H]([C@@H](C)O)C(=O)N2CC[C@H](O)[C@H]2C(=O)N[C@@H]([C@H](O)CC(N)=O)C(=O)NCC(=O)N[C@H]([C@@H](C)O)C(=O)N[C@@H](CCCNC(=O)CN)C(=O)O1	pIC50	=	7.70

====

# System: Candida albicans
# assay: In vitro antifungal activity against Candida albicans CY1002 in the presence of 80% calf serum
# Format: functional, organism-based
measure name: IC50 (µg/mL)

compound	target	unit	result number
CCCCCCCCCCCCC[C@@H]1CC(=O)N[C@@H]([C@@H](C)O)C(=O)N[C@H](C)C(=O)N[C@@H](Cc2ccc(O)cc2)C(=O)N[C@@H](C(C)C)C(=O)N2C[C@H](O)C[C@H]2C(=O)N[C@@H]([C@@H](C)O)C(=O)N[C@@H]([C@@H](C)O)C(=O)N2CC[C@H](O)[C@H]2C(=O)N[C@@H]([C@H](O)CC(N)=O)C(=O)NCC(=O)N[C@@H]([C@@H](C)O)C(=O)N[C@@H](CCCN)C(=O)O1	Candida albicans	µg/mL	0.57
CCCCCCCCCCCCC[C@@H]1CC(=O)N[C@@H]([C@@H](C)O)C(=O)N[C@H](C)C(=O)N[C@@H](Cc2ccc(O)cc2)C(=O)N[C@@H](C(C)C)C(=O)N2C[C@H](O)C[C@H]2C(=O)N[C@@H]([C@@H](C)O)C(=O)N[C@@H]([C@@H](C)O)C(=O)N2CC[C@H](O)[C@H]2C(=O)N[C@@H]([C@H](O)CCN)C(=O)NCC(=O)N[C@@H]([C@@H](C)O)C(=O)N[C@@H](CCN)C(=O)O1	Candida albicans	µg/mL	0.18
CCCCCCCCCCCCC[C@@H]1CC(=O)N[C@@H]([C@@H](C)O)C(=O)N[C@H](C)C(=O)N[C@@H](Cc2ccc(O)cc2)C(=O)N[C@@H](C(C)C)C(=O)N2C[C@H](O)C[C@H]2C(=O)N[C@@H]([C@@H](C)O)C(=O)N[C@@H]([C@@H](C)O)C(=O)N2CC[C@H](O)[C@H]2C(=O)N[C@@H]([C@H](O)CC(N)=O)C(=O)NCC(=O)N[C@@H]([C@@H](C)O)C(=O)N[C@H](CCCNC(=O)C(N)CCCN)C(=O)O1 (some centres undefined)	Candida albicans	µg/mL	0.33
CCCCCCCCCCCCC[C@@H]1CC(=O)N[C@@H]([C@@H](C)O)C(=O)N[C@H](C)C(=O)N[C@@H](Cc2ccc(O)cc2)C(=O)N[C@@H](C(C)C)C(=O)N2C[C@H](O)C[C@H]2C(=O)N[C@@H]([C@@H](C)O)C(=O)N[C@@H]([C@@H](C)O)C(=O)N2CC[C@H](O)[C@H]2C(=O)N[C@@H]([C@H](O)CC(N)=O)C(=O)NCC(=O)N[C@@H]([C@@H](C)O)C(=O)N[C@@H](CCCNC(=O)C(N)CCCN)C(=O)O1 (some centres undefined)	Candida albicans	µg/mL	0.47
